Target: T1, Human SIRPα v2 (human)
T1 construct: also called human SIRPα v2 (antigen of the Biacore assay)
Test: SPR (Biacore), 1:1 binding model
Procedure: The humanized antibodies were characterized for binding affinity against human SIRPα v1, human SIRPα v2 using Surface Plasmon Resonance technology (Biacore system). The association and dissociation curves were fit with 1:1 binding model, and the Ka/Kd/KD values for each antibody were calculated.
property_label: kon (M⁻¹ s⁻¹)
Respond numerically; units are M⁻¹ s⁻¹ and should not be typed.

What value of measured kon is listed for Humanized anti-SIRPα antibody hu025.023 (antibody, V domains shown, Humanized from C25) VH: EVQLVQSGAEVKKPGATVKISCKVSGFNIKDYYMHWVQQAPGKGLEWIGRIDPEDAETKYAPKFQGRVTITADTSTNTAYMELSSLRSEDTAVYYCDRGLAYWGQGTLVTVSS VL: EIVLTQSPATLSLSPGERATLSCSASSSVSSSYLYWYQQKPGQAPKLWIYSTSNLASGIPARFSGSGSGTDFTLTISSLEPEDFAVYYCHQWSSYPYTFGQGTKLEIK ?
1.77e+06

Recorded values, source patent US20240336686A1.
